# EXPERIMENTAL_SYSTEM: human Nav1.7 (full length) (human) (UniProt Q15858)
# TEST: cell-based or functional assay
EXPERIMENTAL_READOUT: % inhibition of inward current following P02 voltage protocol, 100 µg/ml (%)
Express it in %; write the number only.

Consider the binder shown here: 8A7 (antibody, human IgG1, V domains shown, also called mAb 8A7) VH: EVQVQESGPGLVTPSQTLSLTCTVSGGSIKNNYYYWNWIRQPPGKGLEWMGAIAYSGSTYYSPSLQSRTSISRDTSKNQFTLQLSSVTPEDTAVYYCARVPSVFGLPYGGMNYWGKGTLVTVSS VL: SYELTQSPSVTVALRQTAKITCGGSRIGSKSVQWYQQKPGQVPVLVIYADNRRPSRIPERFSGSNSGNTATLIISGAQAEDEADYYCQVWDSSAAVFGGGTHLTVLG What is its recorded % inhibition of inward current following P02 voltage protocol, 100 µg/ml?
47.6

Proceed to 9C3 (antibody, V domains shown, chimeric llama-human, human IgG1 constant domains) VH: EVQLVQPGAELRNPGTSVKVSCKTSGYYFTSSDIQWVRQAPAQGLEWMGRIDPEDGATKYAPKFQGRVTFTADTFTRTAYVELSNLRSDDTAVYYCMTAGGEYWGKGTLVTVSS VL: QPVLNQPSALSVSLGQTARITCQGGDFRNYYNNWYQQKPGQAPVLVIYEDSERPSGIPERFSGSSSGDTVILTVSRVQADDEADYYCQSSDSTDNAVFGGGTHLTVL
36.9

Proceed to 9A1 (antibody, V domains shown, chimeric llama-human, human IgG1 constant domains) VH: EVQLVQPGAELRNPGASVKVSCKASGDTFTDYYIHWVRQAPGQGLEWMGRIDPEDGGTKYTQKFQGRVTFTADTSTSTVYLELDSLRSEDTAVYYCVGDMDYWGKGTLVTVSS VL: QTVVTQEPSLSVSPGGTVTLTCGLSSGSVTFGNYPSWYQQTPGQAPRTLIYTTNSRHSGVPSRFSGSISGNKATLTISGAQPEDEADFYCALSRVSGTYGTVFGGGTHLTVL
37.5
